Data credit: a melting point compilation (Tetko et al.; mined from patent text by program, amines drawn as free bases though some values may be those of a salt)

measurement-kind: melting point

Some compounds with recorded melting point:
compound | value-reported
C[Si](C)(C)c1cc(C(F)(F)F)ccc1OC1CCCCO1 (stereo unspecified) | 43 to 46 °C
O=C(N[C@H](Cc1cccc(OC(F)(F)C(F)F)c1)[C@@H](O)c1ccc(Oc2ccccc2)cc1)c1cccc2c1C=CCCC2 (racemic) | 95 to 96 °C
O=C(O)C12CC3(F)CC(F)(CC(F)(C3)C1)C2 | 198 to 199 °C
Cc1cc(Oc2cccc(C(F)(F)F)c2)c(C)cc1N=CNC#N | 138 to 140 °C
O=C1CN2Cc3ccccc3-c3cccc1c32 | 199 to 202 °C
Nc1ncc(C#Cc2ccccc2)c(NCCOCCO)n1 | 128 to 129 °C

// query Using the record for `O=C(Cc1ccccc1)c1ccc(SC(F)F)cc1` , report its melting point.
// result 42 to 45 °C

// query Using the record for COC(=O)NC(=O)C(Cc1ccc(OCCc2nc(-c3ccccc3)oc2C)cc1)C(=O)OC (stereo unspecified) , report its melting point.
// result 120 °C

// query Using the record for CO[C@H]1C(=O)N(S(C)(=O)=O)[C@H]2CCN(C(=O)OCc3ccccc3)[C@H]12 (relative stereo) , report its melting point.
// result 146 to 149 °C

// query Using the record for CCOC(=O)C(=O)C(NC(=O)c1ccccc1)c1ccccc1 (stereo unspecified) , report its melting point.
// result 80 to 83 °C

// query Using the record for `NC(=O)C=Cc1ccc(N)cc1` , report its melting point.
// result 200 °C
